target: PI3K α (Homo sapiens, UniProt P42336); construct: purchased Upstate; assay: In vitro PI3K α inhibition assay; assay type: biochemical
Sequence (P42336 whole entry): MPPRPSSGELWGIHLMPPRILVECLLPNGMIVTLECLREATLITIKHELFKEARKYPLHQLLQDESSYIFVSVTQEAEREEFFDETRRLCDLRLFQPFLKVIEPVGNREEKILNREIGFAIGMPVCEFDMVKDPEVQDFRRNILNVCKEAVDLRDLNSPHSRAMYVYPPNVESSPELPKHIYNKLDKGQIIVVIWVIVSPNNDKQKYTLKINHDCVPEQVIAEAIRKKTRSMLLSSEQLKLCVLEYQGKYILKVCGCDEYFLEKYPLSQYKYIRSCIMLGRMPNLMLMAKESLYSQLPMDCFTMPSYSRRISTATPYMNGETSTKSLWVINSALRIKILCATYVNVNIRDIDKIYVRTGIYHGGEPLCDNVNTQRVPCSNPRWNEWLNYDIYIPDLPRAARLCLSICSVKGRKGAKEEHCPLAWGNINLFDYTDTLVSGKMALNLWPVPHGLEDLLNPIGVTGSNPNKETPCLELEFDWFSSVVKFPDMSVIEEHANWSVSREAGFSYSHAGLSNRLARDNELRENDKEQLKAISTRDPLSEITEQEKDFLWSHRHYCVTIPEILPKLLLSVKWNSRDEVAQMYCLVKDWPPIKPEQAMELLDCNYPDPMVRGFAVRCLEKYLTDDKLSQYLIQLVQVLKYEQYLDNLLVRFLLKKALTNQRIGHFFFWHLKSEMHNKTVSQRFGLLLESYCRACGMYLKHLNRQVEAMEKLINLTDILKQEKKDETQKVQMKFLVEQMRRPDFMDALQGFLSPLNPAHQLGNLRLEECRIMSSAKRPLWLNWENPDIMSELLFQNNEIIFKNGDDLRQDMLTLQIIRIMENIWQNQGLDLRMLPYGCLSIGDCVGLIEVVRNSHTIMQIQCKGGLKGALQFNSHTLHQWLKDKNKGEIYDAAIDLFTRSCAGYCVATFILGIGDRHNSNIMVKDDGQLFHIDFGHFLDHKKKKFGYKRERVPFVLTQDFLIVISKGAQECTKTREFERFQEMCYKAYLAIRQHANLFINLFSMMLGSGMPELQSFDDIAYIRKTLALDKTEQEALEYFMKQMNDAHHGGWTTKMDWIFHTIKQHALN
Sequence (P27986 whole entry partner): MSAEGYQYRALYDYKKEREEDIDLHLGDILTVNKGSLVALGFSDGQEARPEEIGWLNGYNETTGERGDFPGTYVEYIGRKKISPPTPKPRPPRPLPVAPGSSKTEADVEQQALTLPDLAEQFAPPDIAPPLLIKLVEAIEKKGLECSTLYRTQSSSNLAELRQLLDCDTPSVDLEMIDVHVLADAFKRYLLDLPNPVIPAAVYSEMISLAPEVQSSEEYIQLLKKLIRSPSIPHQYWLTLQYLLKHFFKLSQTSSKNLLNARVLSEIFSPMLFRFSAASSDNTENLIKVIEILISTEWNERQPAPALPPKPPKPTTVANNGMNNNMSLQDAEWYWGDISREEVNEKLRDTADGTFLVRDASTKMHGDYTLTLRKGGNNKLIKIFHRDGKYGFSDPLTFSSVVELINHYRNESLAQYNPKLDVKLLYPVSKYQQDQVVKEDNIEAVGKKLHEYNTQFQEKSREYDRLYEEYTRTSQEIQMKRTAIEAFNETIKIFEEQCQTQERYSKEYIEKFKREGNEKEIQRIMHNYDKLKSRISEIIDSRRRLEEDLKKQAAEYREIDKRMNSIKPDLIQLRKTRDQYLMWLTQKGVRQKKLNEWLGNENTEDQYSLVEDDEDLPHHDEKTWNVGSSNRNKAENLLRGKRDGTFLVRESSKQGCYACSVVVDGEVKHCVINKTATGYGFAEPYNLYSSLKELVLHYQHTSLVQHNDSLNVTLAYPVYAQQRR
metric: IC50

## Input Field request: IC50 | item: C[C@@H](Nc1ncnc2[nH]cnc12)c1cc2cccc(N3CCOCC3)c2c(=O)n1-c1ccccc1 (stereo in doubt)
## Output > 10000 nM

## Input Fill in the blank: the reported IC50 of `COc1ncc(-c2cccc3cc([C@H](C)Nc4ncnc5[nH]cnc45)n(-c4ccccc4)c(=O)c23)cn1` is ____.
## Output < 10000 nM

## Input Query (compound): CC(Nc1ncnc2[nH]cnc12)c1cc2cccc(C#N)c2c(=O)n1-c1ccccc1 (stereo in doubt) ; field requested: IC50
## Output > 10000 nM

## Input Look at this compound and give its reported IC50. `C[C@H](Nc1nc(N)ncc1C#N)c1cc2cccc(-c3cnn(C)c3)c2c(=O)n1C1CC1`
## Output < 10000 nM

## Input GET /values?readout=IC50&item= C[C@@H](Nc1ncnc2[nH]cnc12)c1cc2cccc(-c3ccncc3)c2c(=O)n1-c1ccccc1 (stereo in doubt)
## Output < 10000 nM
